- TARGET_ENTITY: Neuronal acetylcholine receptor subunit alpha-4 (Homo sapiens)
- Sequence (P43681 whole entry): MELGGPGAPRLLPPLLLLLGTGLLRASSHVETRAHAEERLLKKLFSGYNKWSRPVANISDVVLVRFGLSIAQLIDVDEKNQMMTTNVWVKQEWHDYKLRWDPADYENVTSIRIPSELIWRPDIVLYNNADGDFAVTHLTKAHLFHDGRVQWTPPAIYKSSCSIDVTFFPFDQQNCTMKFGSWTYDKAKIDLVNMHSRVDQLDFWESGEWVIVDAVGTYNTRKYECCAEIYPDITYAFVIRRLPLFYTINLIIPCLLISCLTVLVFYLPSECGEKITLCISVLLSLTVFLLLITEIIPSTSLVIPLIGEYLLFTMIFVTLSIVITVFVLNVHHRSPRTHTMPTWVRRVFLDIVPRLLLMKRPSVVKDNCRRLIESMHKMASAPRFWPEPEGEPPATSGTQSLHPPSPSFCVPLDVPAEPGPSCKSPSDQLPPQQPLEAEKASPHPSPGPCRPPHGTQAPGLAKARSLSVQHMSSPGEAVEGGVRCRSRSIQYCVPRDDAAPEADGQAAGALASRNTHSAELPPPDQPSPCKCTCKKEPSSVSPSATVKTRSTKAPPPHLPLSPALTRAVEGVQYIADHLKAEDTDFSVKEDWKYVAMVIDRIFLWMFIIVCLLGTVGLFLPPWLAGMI
QUANTITY: Ki

Check the records and state Ki for "COC(=O)[C@@H]1C[C@H](OC(C)=O)C(=O)[C@H]2[C@@]1(C)CC[C@H]1C(=O)O[C@H](c3ccoc3)C[C@]21C"
> 10 µM

====

- TARGET_ENTITY: Metabotropic glutamate receptor 8 (Homo sapiens)
- Sequence (O00222 whole entry): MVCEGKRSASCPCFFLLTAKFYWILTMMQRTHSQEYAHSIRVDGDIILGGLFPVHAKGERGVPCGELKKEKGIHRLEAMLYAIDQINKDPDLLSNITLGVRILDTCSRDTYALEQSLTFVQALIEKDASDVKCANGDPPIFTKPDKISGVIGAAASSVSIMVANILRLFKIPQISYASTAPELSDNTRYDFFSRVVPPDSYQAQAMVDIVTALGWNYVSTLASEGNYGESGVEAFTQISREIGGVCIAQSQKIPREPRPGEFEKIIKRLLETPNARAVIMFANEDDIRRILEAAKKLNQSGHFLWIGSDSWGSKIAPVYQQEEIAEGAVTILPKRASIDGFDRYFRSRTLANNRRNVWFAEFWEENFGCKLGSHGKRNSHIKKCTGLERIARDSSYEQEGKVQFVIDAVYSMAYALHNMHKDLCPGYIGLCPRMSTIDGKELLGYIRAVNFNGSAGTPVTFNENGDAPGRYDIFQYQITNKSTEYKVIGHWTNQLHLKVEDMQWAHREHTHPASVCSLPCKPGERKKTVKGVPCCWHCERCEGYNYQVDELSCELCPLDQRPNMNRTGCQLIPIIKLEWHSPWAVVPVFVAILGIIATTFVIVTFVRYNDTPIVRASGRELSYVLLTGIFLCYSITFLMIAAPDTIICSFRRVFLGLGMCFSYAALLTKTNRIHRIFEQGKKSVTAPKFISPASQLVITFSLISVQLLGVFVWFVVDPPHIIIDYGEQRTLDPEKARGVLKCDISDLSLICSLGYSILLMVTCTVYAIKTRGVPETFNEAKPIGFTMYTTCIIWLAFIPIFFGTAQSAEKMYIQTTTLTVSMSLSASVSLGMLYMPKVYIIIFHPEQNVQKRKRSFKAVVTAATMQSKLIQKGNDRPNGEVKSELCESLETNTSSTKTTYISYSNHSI
pKi: −log10 of the molar value.
QUANTITY: pKi

Check the records and state pKi for "COC(=O)[C@@H]1C[C@H](OC(C)=O)C(=O)[C@H]2[C@@]1(C)CC[C@H]1C(=O)O[C@H](c3ccoc3)C[C@]21C"
< 5.00

====

- TARGET_ENTITY: Gamma-aminobutyric acid receptor subunit alpha-1 (Rattus norvegicus)
- Sequence (P62813 whole entry): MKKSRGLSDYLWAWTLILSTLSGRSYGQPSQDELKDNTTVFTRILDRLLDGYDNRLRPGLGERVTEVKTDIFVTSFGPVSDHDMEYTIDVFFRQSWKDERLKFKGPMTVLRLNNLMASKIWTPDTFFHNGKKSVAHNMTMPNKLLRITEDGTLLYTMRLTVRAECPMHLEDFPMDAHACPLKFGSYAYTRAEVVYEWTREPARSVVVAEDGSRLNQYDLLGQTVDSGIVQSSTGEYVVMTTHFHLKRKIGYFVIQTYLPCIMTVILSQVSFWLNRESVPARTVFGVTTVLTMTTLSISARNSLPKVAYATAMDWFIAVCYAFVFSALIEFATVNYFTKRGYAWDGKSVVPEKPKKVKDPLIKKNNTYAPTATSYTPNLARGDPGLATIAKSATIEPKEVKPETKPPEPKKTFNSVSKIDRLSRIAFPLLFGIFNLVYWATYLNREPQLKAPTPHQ
QUANTITY: Ki

Check the records and state Ki for "COC(=O)[C@@H]1C[C@H](OC(C)=O)C(=O)[C@H]2[C@@]1(C)CC[C@H]1C(=O)O[C@H](c3ccoc3)C[C@]21C"
> 10 µM

====

- TARGET_ENTITY: UniProtKB P34969
- Sequence (P34969 whole entry): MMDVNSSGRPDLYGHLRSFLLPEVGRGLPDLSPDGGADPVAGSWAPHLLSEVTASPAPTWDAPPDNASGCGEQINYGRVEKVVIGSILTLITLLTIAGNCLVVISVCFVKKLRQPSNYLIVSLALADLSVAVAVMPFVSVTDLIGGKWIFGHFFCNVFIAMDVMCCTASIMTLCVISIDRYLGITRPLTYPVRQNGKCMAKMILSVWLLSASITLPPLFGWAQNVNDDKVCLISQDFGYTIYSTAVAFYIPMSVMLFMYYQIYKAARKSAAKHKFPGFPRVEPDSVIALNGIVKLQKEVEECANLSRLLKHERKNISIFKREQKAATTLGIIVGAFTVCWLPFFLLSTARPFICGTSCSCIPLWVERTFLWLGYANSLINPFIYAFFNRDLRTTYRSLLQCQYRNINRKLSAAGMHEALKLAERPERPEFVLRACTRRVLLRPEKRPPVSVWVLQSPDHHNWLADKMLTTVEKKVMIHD
QUANTITY: Ki

Report measured Ki on UniProtKB P34969; entry: "COC(=O)[C@@H]1C[C@H](OC(C)=O)C(=O)[C@H]2[C@@]1(C)CC[C@H]1C(=O)O[C@H](c3ccoc3)C[C@]21C"
> 10 µM

====

- TARGET_ENTITY: Sodium-dependent dopamine transporter (Bos taurus, UniProt P27922)
- Sequence (P27922 whole entry): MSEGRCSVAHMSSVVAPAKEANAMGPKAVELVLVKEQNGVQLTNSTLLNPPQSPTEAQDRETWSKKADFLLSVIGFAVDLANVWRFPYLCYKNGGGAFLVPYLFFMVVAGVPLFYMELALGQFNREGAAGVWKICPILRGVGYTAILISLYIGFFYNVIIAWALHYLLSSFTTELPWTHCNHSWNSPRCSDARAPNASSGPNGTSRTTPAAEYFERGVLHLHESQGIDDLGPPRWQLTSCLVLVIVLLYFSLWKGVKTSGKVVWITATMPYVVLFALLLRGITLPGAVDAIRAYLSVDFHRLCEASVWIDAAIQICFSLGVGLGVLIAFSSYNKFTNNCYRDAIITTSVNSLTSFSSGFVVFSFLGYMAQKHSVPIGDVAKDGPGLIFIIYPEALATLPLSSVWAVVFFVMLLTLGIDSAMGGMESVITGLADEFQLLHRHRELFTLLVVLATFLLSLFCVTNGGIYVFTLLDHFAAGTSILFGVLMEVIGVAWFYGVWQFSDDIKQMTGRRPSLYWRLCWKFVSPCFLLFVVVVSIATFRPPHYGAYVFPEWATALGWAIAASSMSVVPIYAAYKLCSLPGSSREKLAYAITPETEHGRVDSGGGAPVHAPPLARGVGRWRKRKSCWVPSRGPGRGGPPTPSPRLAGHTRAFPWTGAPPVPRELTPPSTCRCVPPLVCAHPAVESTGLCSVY
pKi: −log10 of the molar value.
QUANTITY: pKi

Check the records and state pKi for "COC(=O)[C@@H]1C[C@H](OC(C)=O)C(=O)[C@H]2[C@@]1(C)CC[C@H]1C(=O)O[C@H](c3ccoc3)C[C@]21C"
< 5.00

====

- TARGET_ENTITY: Neuronal acetylcholine receptor subunit alpha-3 (Homo sapiens, UniProt P32297)
- Sequence (P32297 whole entry): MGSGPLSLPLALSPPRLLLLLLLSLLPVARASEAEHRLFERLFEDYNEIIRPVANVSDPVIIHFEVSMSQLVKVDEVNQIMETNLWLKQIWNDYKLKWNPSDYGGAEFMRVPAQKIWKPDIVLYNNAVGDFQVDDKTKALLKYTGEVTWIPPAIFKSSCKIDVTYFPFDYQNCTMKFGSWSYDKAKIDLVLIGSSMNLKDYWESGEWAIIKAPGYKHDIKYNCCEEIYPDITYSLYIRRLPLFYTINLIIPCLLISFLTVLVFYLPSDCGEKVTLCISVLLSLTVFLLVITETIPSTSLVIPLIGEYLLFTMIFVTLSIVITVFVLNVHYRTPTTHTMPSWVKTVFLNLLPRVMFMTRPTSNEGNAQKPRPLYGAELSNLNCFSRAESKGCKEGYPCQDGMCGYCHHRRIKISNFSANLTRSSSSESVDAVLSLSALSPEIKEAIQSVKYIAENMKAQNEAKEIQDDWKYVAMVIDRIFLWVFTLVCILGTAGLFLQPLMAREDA
QUANTITY: Ki

Check the records and state Ki for "COC(=O)[C@@H]1C[C@H](OC(C)=O)C(=O)[C@H]2[C@@]1(C)CC[C@H]1C(=O)O[C@H](c3ccoc3)C[C@]21C"
> 10 µM

====

- TARGET_ENTITY: Alpha-1A adrenergic receptor (Homo sapiens, UniProt P35348)
pKi: −log10 of the molar value.
QUANTITY: pKi

Report measured pKi on Alpha-1A adrenergic receptor (Homo sapiens, UniProt P35348); entry: "COC(=O)[C@@H]1C[C@H](OC(C)=O)C(=O)[C@H]2[C@@]1(C)CC[C@H]1C(=O)O[C@H](c3ccoc3)C[C@]21C"
< 5.00

====

- TARGET_ENTITY: Beta-2 adrenergic receptor (Rattus norvegicus, UniProt P10608)
- Sequence (P10608 whole entry): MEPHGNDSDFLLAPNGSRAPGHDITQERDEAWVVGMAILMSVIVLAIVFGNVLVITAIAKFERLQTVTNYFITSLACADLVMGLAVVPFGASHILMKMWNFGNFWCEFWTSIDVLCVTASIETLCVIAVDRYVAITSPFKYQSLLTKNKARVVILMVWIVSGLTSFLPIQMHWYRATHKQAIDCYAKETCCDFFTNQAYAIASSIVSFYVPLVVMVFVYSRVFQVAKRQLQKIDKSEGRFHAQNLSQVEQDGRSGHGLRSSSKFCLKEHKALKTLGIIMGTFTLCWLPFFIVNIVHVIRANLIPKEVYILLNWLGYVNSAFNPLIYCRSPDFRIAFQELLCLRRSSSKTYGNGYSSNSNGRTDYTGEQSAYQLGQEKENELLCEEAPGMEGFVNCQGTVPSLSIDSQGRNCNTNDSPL
QUANTITY: Ki

Check the records and state Ki for "COC(=O)[C@@H]1C[C@H](OC(C)=O)C(=O)[C@H]2[C@@]1(C)CC[C@H]1C(=O)O[C@H](c3ccoc3)C[C@]21C"
> 10 µM

====

- TARGET_ENTITY: 5-hydroxytryptamine receptor 5A (Homo sapiens)
- Sequence (P47898 whole entry): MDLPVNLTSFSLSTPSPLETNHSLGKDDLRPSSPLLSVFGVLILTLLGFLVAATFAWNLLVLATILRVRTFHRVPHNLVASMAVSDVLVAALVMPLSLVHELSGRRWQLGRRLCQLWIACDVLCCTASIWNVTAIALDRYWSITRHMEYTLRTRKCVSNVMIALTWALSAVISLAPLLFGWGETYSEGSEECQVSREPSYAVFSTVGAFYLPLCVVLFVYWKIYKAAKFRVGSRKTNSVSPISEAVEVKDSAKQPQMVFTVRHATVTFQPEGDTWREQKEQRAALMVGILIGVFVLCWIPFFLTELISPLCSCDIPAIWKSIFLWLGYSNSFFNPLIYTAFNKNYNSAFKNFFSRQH
pKi: −log10 of the molar value.
QUANTITY: pKi

Check the records and state pKi for "COC(=O)[C@@H]1C[C@H](OC(C)=O)C(=O)[C@H]2[C@@]1(C)CC[C@H]1C(=O)O[C@H](c3ccoc3)C[C@]21C"
< 5.00

====

- TARGET_ENTITY: Muscarinic acetylcholine receptor M1 (Homo sapiens, UniProt P11229)
- Sequence (P11229 whole entry): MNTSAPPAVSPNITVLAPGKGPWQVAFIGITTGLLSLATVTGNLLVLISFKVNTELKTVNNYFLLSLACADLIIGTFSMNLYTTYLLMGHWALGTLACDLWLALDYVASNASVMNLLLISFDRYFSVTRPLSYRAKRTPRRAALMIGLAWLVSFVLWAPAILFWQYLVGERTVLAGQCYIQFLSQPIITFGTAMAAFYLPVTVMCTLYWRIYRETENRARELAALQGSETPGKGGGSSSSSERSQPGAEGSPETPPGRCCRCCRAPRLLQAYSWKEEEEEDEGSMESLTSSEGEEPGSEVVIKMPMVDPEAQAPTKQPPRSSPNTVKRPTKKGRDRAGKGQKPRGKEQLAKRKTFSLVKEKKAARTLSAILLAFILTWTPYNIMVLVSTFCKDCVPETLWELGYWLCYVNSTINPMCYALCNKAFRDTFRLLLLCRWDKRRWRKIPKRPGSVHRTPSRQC
pKi: −log10 of the molar value.
QUANTITY: pKi

Check the records and state pKi for "COC(=O)[C@@H]1C[C@H](OC(C)=O)C(=O)[C@H]2[C@@]1(C)CC[C@H]1C(=O)O[C@H](c3ccoc3)C[C@]21C"
< 5.00
